Tested on: Trypanosoma brucei
Experimental Details: Trypanosoma brucei 72 hour study
Format: functional, organism-based
Design: scale not given: in the data most compounds retested in dose-response had high values
Particulars: 30.3 µM; […]
Screen size: about 66,000 compounds; about 960 (1.5%) showed an effect of 50% or more. This excerpt belongs to a sample that is enriched for strong results.
Experimental Readout: Percent Effect (%)
Value expressed in %; do not type the unit.

Exam item: Retrieve Percent Effect on Trypanosoma brucei; query C[C@@H]1CN(C2CCN(Cc3nn(C)c4cccc(Cl)c34)CC2)C[C@H](C)O1
Marked response: 10.53

Exam item: Retrieve Percent Effect on Trypanosoma brucei; query CCc1c(C)nc2cc(C3CCN(Cc4cccc(F)c4)C3)nn2c1O (stereo not drawn)
Marked response: 27.1

Exam item: Retrieve Percent Effect on Trypanosoma brucei; query OC[C@@H]1CCCN1c1nccc(-c2c[nH]nc2-c2ccncc2)n1
Marked response: 21.87

Where these numbers come from: ChEMBL document CHEMBL3988442
